assay: Murine protein binding; format: in vitro ADME; conditions: mouse, plasma
Starred links: 1 amine or outer side, 2 acyl side, 3 side chain; linkers in the order of their positions; H or OH if unused. Positions of bridges follow the written chain, without caps; N, C: chain ends. Non-standard residues stand in square brackets, D forms with d. Residues, ends and D or L forms follow the SMILES beside them. *: point of attachment. Orn(4R-OH,5R-OCH2CH2NMe3+) = C[N+](C)(C)CCO[C@@H](N[*:3])[C@H](O)C[C@H](N[*:1])C(=O)[*:2]; pTerphenylCO(4''-OnC5H11) = CCCCCOc1ccc(-c2ccc(-c3ccc(C(=O)*)cc3)cc2)cc1; hTyr(3S-OH,4S-OH) = N[C@H](C(=O)O)[C@H](O)[C@@H](O)c1ccc(O)cc1; Pro(3S-OH,4S-Me) = C[C@H]1CN[C@H](C(=O)O)[C@H]1O; Hyp = O=C(O)[C@@H]1C[C@@H](O)CN1
RESULT TYPE: fraction unbound

For reference, reported fraction unbound for CCCCCOc1ccc(-c2ccc(-c3ccc(C(=O)N[C@H]4C[C@@H](O)[C@@H](OCC[N+](C)(C)C)NC(=O)[C@@H]5[C@@H](O)[C@@H](C)CN5C(=O)[C@H]([C@@H](C)O)NC(=O)[C@H]([C@H](O)[C@@H](O)c5ccc(O)cc5)NC(=O)[C@@H]5C[C@@H](O)CN5C(=O)[C@H]([C@@H](C)O)NC4=O)cc3)cc2)cc1 [Compound 1] ({pTerphenylCO(4''-OnC5H11)}-[Orn(4R-OH,5R-OCH2CH2NMe3+)]T[Hyp][hTyr(3S-OH,4S-OH)]T[Pro(3S-OH,4S-Me)]; lactam 1-C) stands at 0.009

* * *

system: Candida albicans; test: Broth microdilution of invasive fungal isolates (CLSI M27-A3/M38-A2); assay type: cell-based; details: 251 isolates
Starred links: 1 amine or outer side, 2 acyl side, 3 side chain; linkers in the order of their positions; H or OH if unused. Positions of bridges follow the written chain, without caps; N, C: chain ends. Non-standard residues stand in square brackets, D forms with d. Residues, ends and D or L forms follow the SMILES beside them. *: point of attachment. Orn(4R-OH,5R-OCH2CH2NMe3+) = C[N+](C)(C)CCO[C@@H](N[*:3])[C@H](O)C[C@H](N[*:1])C(=O)[*:2]; hTyr(3S-OH,4S-OH,3'-OSO3H) = N[C@H](C(=O)O)[C@H](O)[C@@H](O)c1ccc(O)c(OS(=O)(=O)O)c1; pTerphenylCO(4''-OnC5H11) = CCCCCOc1ccc(-c2ccc(-c3ccc(C(=O)*)cc3)cc2)cc1; Orn(4R-OH,5R-OH) = O=C([C@H](C[C@@H](O)[C@@H](O)N[*:3])N[*:1])[*:2]; hTyr(3S-OH,4S-OH) = N[C@H](C(=O)O)[C@H](O)[C@@H](O)c1ccc(O)cc1; Pro(3S-OH,4S-Me) = C[C@H]1CN[C@H](C(=O)O)[C@H]1O; X1 = CCCCCOc1ccc(-c2cc(-c3ccc(C(=O)*)cc3)no2)cc1; Gln(3R-OH) = NC(=O)C[C@@H](O)[C@H](N)C(=O)O; Hyp = O=C(O)[C@@H]1C[C@@H](O)CN1
RESULT TYPE: Cumulative % of isolates inhibited at MIC ≤0.008 μg/mL

CCCCCOc1ccc(-c2cc(-c3ccc(C(=O)N[C@H]4C[C@@H](O)[C@@H](O)NC(=O)[C@@H]5[C@@H](O)[C@@H](C)CN5C(=O)[C@H]([C@H](O)CC(N)=O)NC(=O)[C@H]([C@H](O)[C@@H](O)c5ccc(O)c(OS(=O)(=O)O)c5)NC(=O)[C@@H]5C[C@@H](O)CN5C(=O)[C@H]([C@@H](C)O)NC4=O)cc3)no2)cc1 [MCF, micafungin] (X1-[Orn(4R-OH,5R-OH)]T[Hyp][hTyr(3S-OH,4S-OH,3'-OSO3H)][Gln(3R-OH)][Pro(3S-OH,4S-Me)]; lactam 1-C)
(6.8) %
CCCCCOc1ccc(-c2ccc(-c3ccc(C(=O)N[C@H]4C[C@@H](O)[C@@H](OCC[N+](C)(C)C)NC(=O)[C@@H]5[C@@H](O)[C@@H](C)CN5C(=O)[C@H]([C@@H](C)O)NC(=O)[C@H]([C@H](O)[C@@H](O)c5ccc(O)cc5)NC(=O)[C@@H]5C[C@@H](O)CN5C(=O)[C@H]([C@@H](C)O)NC4=O)cc3)cc2)cc1 [Compound 1] ({pTerphenylCO(4''-OnC5H11)}-[Orn(4R-OH,5R-OCH2CH2NMe3+)]T[Hyp][hTyr(3S-OH,4S-OH)]T[Pro(3S-OH,4S-Me)]; lactam 1-C)
(6.8) %
